test system: COS-1 cells; test: LDH assay (necrosis); format: cell-based; details: 1 µM
Field: class. Source value: LDH.1µM. Ranges: band 1 (below 1), band 2 (1 to below 2), band 3 (2 or more)

{"columns": ["Compound", "System name", "Group"],
 "data": [
  ["CC(=O)N(Cc1ccc(N(C)C)cc1)c1c(-c2ccccc2)noc1C", "COS-1 cells", "band 1"],
  ["CCN(CC)c1ccc(NC(=O)c2c(C)noc2-c2cc(C)on2)cc1", "COS-1 cells", "band 1"],
  ["CCN(CC)c1ccc(NC(=O)c2cnoc2-c2ccccc2)cc1 [Compound 47d]", "COS-1 cells", "band 3"],
  ["COc1ccc(-c2cc(NC(=O)c3ccc(C(C)(C)C)cc3)n[nH]2)cc1", "COS-1 cells", "band 3"],
  ["CCN(CC)c1ccc(NC(=O)c2cnc3ncccn23)cc1 [Compound 47aa]", "COS-1 cells", "band 2"],
  ["CCN(CC)c1ccc(CNc2c(-c3ccccc3)noc2C)cc1", "COS-1 cells", "band 3"],
  ["CCN(CC)c1ccc(NC(=O)c2csc(C)c2-c2ccccc2)cc1 [Compound 47t]", "COS-1 cells", "band 1"],
  ["C=CCN(Cc1ccc(N(CC)CC)cc1)c1c(-c2ccccc2)noc1C [Compound 30b]", "COS-1 cells", "band 1"],
  ["CCCn1nnc(-c2ccccc2)c1C(=O)Nc1ccc(N(CC)CC)cc1", "COS-1 cells", "band 3"],
  ["CCN(CC)c1ccc(CN(C(=O)C(F)(F)F)c2c(-c3ccccc3)noc2C)cc1 [Compound 30c]", "COS-1 cells", "band 2"],
  ["COc1ccc(-c2cc(N)nn2C(=O)c2c(-c3ccccc3)noc2C)cc1", "COS-1 cells", "band 3"],
  ["CCN(CC)c1ccc(NC(=O)c2cnsc2)cc1 [Compound 47s]", "COS-1 cells", "band 3"],
  ["CCN(CC)c1ccc(NC(=O)c2c[nH]nc2-c2ccccc2)cc1", "COS-1 cells", "band 3"],
  ["CCN(CC)c1ccc(NC(=O)c2ccnn2-c2ccccc2)cc1", "COS-1 cells", "band 3"],
  ["CCN(CC)c1ccc(NC(=O)c2cnc(SC)n2-c2ccc(F)cc2)cc1 [Compound 47z]", "COS-1 cells", "band 1"],
  ["CCN(CC)c1ccc(NC(=O)c2c(-c3cccc([N+](=O)[O-])c3)noc2C)cc1 [Compound 39g]", "COS-1 cells", "band 2"]
]}

----------
tested on: COS-1 cells; test: MTT assay (cell viability); type: cell-based; settings: 24-h exposure, classified at 10 μM
Endpoint: toxicity class in the MTT assay

{"columns": ["Compound", "Reading"],
 "data": [
  ["CCC(=O)N(Cc1ccc(N(CC)CC)cc1)c1c(-c2ccccc2)noc1C [Compound 58]", "most toxic"],
  ["Cc1onc(-c2ccccc2)c1COc1ccc(C(=O)OCCC#N)cc1 [Compound 35a]", "most toxic"],
  ["CCN(CC)c1ccc(NC(=O)c2cc(C)oc2-c2ccccc2)cc1 [Compound 54]", "most toxic"],
  ["CC(=O)COC(=O)c1ccc(OCc2c(-c3ccccc3)noc2C)cc1 [Compound 35d]", "most toxic"]
]}

----------
target: GATA4–NKX2-5 transcriptional synergy (Mus musculus, UniProt P42582+Q08369); construct: expressed in transfected cells; host or cells: COS-1; assay: GATA4–NKX2-5 transcriptional synergy luciferase reporter assay (3xNKE reporter, COS-1 cells); assay type: cell-based; conditions: COS-1; compound 3 µM; luciferase reporter activity relative to control
Sequence (Q08369 whole entry): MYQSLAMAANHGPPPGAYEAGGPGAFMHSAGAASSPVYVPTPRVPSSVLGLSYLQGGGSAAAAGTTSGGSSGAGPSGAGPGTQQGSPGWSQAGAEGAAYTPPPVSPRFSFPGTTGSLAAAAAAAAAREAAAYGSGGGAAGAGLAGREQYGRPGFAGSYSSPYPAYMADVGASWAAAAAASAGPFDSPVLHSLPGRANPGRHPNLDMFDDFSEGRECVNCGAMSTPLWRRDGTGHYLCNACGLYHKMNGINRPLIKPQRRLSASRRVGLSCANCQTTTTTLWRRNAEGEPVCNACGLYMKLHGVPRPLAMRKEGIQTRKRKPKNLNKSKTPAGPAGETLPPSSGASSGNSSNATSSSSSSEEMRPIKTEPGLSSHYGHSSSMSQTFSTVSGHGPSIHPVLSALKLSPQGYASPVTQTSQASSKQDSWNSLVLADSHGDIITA
Sequence (P42582 whole entry): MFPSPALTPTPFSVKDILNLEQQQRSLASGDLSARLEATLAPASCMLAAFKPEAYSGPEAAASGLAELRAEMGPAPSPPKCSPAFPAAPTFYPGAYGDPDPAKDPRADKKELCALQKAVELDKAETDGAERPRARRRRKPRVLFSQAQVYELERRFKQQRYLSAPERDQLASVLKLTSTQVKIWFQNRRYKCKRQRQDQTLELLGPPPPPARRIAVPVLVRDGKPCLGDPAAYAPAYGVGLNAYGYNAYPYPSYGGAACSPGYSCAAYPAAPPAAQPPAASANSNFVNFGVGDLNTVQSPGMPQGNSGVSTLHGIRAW
Listed below: activity at 3 µM values for each entry.

{"columns": ["Molecule", "activity at 3 µM"],
 "data": [
  ["CCCCOC(=O)c1ccc(N=Nc2c(-c3ccc(OC)cc3)n[nH]c2N)cc1", "97.6%"],
  ["CCN(CC)c1ccc(NC(=O)c2c(-c3ccccc3)nnn2Cc2ccccc2)cc1", "97.8%"],
  ["Cc1onc(-c2ccccc2)c1COc1ccc(C(=O)OCC(C)C)cc1 [Compound 35e]", "87.7%"],
  ["CCN(CC)c1ccc(NC(=O)c2c(-c3ccccc3)nnn2CC(C)C)cc1", "83.6%"],
  ["COc1ccc(-c2n[nH]c(N)c2/N=N/c2ccc(C(=O)O)cc2)cc1", "91.9%"]
]}
